SYSTEM UNDER TEST: Gal(a1-3)Gal(b1-4)Glc
PROCEDURE DETAILS: glycan array binding signal (z-score within array); higher = stronger binding
SETTINGS: glycan notation: IUPAC condensed, linker removed
The full list was thinned out, with the strongest signals kept by preference.
Rule: Met for glycan array binding signal (z-score) not less than -0.2, Not met for anything less.

{"BINDER": "HPL (Tachypleus tridentatus) (protein) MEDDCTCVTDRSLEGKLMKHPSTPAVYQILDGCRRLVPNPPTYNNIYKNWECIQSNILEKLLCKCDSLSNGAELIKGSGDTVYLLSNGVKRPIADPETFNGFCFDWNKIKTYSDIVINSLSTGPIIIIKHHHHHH", "LABEL VALUE": "Met"}
{"BINDER": "T7P4 (Tuber borchii) (protein) GSHIGPYMSFYASSEDVRTIEEGGRTWLVGRARRADGSWQDIKLDLDNIIGNRDGHLTWGEQNFTQSASDIRFNFEGSNVPVLRAKLRNAAGGEQESDLNLGERLTNNNGDLVFN", "LABEL VALUE": "Not met"}
{"BINDER": "Si Bti9 1b-V5-his (Solanum lycopersicum) (protein) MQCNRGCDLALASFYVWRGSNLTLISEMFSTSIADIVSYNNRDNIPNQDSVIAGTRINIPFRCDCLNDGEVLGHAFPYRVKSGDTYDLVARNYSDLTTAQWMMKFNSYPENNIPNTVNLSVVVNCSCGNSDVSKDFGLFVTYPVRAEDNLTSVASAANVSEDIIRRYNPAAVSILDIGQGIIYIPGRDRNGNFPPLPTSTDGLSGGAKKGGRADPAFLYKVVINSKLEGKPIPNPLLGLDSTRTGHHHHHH", "LABEL VALUE": "Met"}
{"BINDER": "CSA (Cytisus scoparius), P29257 (protein) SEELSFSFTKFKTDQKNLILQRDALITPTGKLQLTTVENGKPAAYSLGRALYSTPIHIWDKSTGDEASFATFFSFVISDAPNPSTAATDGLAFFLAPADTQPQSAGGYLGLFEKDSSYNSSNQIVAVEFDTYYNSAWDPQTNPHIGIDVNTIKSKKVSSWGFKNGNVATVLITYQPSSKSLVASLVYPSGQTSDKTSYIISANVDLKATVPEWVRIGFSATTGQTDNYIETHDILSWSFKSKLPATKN", "LABEL VALUE": "Met"}
{"BINDER": "Langerin CRD (Homo sapiens), Q9UJ71 (protein) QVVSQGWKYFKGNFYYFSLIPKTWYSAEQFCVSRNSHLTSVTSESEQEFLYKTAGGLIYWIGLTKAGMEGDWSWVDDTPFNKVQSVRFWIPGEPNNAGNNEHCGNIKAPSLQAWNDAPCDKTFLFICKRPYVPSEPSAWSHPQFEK", "LABEL VALUE": "Not met"}
{"BINDER": "HPA (Helix pomatia), Q575S3 (protein) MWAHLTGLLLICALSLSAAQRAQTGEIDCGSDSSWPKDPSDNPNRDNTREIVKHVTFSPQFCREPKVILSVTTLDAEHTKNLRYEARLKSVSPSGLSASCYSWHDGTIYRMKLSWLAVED", "LABEL VALUE": "Not met"}

Cited source for all entries: the supplement of paper PMC8728848
